B1: ESR2 (parent)
chain: KSCQACRLRKCYEVGMVKCGSRRE

Variants of: B1
Test: protein stability index of a GFP-peptide fusion (GPS, HEK-293T) (PSI 1-6); higher = more stable;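 note: lentivirally expressed fusions sorted by FACS into six bins by GFP to DsRed ratio, PSI derived from sequencing read proportions per bin multiplied by bin number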
Details: c terminus: a fixed tail appended
Below: a set of entries, each annotated with reported protein stability index.

mutant_code	protein stability index
M16G	2
S2E	1.96
K18E	2.09
R7K	2.03
G20S	1.81
Y12P	2.13
G15C	2.25
Y12Q	2.06
E13Q	1.7
C6W	2
